Target: 5-lipoxygenase (Homo sapiens, UniProt P09917)
Construct: The formation of 5-HETE in human leukocytes is considered a measure of 5-lipoxygenase activity; endogenous in cells; host or cells: leukocytes isolated from fresh human blood
Sequence (P09917 whole entry): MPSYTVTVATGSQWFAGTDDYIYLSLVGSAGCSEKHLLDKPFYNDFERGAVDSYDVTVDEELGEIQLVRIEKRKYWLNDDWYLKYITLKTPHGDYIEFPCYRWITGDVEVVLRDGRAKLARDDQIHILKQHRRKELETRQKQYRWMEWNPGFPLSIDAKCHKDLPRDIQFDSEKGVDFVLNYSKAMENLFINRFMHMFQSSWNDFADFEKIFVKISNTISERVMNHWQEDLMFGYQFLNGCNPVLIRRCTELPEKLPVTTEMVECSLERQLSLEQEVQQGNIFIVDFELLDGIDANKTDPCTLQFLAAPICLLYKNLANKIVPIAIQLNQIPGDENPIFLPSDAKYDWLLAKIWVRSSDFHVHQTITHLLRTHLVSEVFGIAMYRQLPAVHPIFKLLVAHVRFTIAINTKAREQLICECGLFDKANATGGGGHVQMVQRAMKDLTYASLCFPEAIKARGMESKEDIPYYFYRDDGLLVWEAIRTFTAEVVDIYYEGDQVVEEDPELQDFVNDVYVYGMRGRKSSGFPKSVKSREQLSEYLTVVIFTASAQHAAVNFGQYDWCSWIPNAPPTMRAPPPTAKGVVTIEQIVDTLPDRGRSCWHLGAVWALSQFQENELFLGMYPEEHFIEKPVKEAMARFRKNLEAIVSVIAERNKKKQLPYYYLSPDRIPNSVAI
Experiment: 5-Lipoxygenase Assay Using Isolated Human Leukocytes (5LOA2), 5-HETE formation
Type: cell-based
Settings: inhibition of 5-HETE formation, arachidonic acid 20 μM, A23187 10 μM, read-out: 5-LO(IC50 in μM)
Experimental: 5-Lipoxygenase Assay Using Isolated Human Leukocytes (5LOA2) The formation of 5-HETE in human leukocytes is considered a measure of 5-lipoxygenase activity. The protocol is described in the following. Fresh heparinized or EDTA treated human blood is mixed with 6% dextran-3% dextrose in isotonic saline in the ratio 0.25 ml dextran solution per 1.0 ml blood. […] A portion of the ethanol solution is injected into the HPLC system for 5-HETE quantitation. […]
QUANTITY: IC50

Lookup: Entry Oc1ccc(CCc2cc(CCc3ccc(O)cc3)[nH]n2)cc1 [Example 3] has what IC50?
Found: 15 µM

Lookup: Entry COc1cc(C=Cc2cc(C)n[nH]2)ccc1O [Example 5] has what IC50?
Found: 7.1 µM

Lookup: Entry COc1cc(CCc2cc(CCc3ccc(O)c(OC)c3)on2)ccc1O [Example 12] has what IC50?
Found: 29 µM

Lookup: Entry Cc1cc(C=Cc2ccc(O)c(Cl)c2)n[nH]1 [Example 7] has what IC50?
Found: 5.5 µM

Lookup: Entry CCc1cc(C=Cc2ccc(O)c(OC)c2)n[nH]1 [Example 9] has what IC50?
Found: 7.5 µM

###

biological target: cyclooxygenase (Bos taurus, UniProt O62664); construct: The assay consists of incubating 2 mg bovine seminal vesicle powder; from tissue; host or cells: bovine seminal vesicle powder; assay: Cyclooxygenase Enzyme Assay, bovine seminal vesicle (BSV), PGE2 formation; format: biochemical; conditions: bovine seminal vesicle powder; 100 μM arachidonic acid, 20 minutes
Sequence (O62664 25-600): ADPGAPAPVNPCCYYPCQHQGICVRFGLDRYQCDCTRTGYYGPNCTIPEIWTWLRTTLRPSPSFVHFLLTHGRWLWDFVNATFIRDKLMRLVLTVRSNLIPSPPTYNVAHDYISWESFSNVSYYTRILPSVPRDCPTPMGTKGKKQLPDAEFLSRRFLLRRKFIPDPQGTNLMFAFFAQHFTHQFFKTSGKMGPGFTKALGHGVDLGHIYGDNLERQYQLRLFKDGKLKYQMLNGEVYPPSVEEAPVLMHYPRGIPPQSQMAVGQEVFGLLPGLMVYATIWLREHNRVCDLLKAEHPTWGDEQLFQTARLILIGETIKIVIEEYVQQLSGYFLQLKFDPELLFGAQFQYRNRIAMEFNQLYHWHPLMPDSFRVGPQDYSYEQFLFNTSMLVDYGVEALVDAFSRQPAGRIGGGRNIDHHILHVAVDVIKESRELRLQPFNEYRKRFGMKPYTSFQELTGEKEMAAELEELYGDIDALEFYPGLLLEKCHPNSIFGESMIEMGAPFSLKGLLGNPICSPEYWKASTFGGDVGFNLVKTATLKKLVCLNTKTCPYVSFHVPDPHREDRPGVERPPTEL
For each record, write down the corresponding IC50.
Write the value in µM as a bare number.

Lookup: Entry COc1cc(C=Cc2cc(-c3ccccc3)[nH]n2)ccc1O [Example 4] has what IC50?
Found: 40

Lookup: Entry Oc1ccc(CCc2cc(CCc3ccc(O)cc3)[nH]n2)cc1 [Example 3] has what IC50?
Found: 44

Lookup: Entry COc1cc(CCc2cc(CCc3ccc(O)c(OC)c3)[nH]n2)ccc1O [Example 2] has what IC50?
Found: 67

Lookup: Entry COc1cc(CCc2cc(CCc3ccc(O)c(OC)c3)on2)ccc1O [Example 12] has what IC50?
Found: 31

Lookup: Entry COc1cc(C=Cc2cc(C=Cc3ccc(O)c(OC)c3)[nH]n2)ccc1O [Example 1] has what IC50?
Found: 66

Lookup: Entry COc1cc(C=Cc2cc(C)n[nH]2)ccc1O [Example 5] has what IC50?
Found: 33

Lookup: Entry CCc1cc(C=Cc2ccc(O)c(OC)c2)n[nH]1 [Example 9] has what IC50?
Found: 56

Lookup: Entry Cc1cc(C=Cc2ccc(O)c(Cl)c2)n[nH]1 [Example 7] has what IC50?
Found: 34

###

target: cyclooxygenase (Rattus norvegicus, UniProt Q63921); construct: RBL-1 intact cell cyclooxygenase IC50 values; endogenous in cells; assay: ARBC Whole Cell Cyclooxygenase Assay in RBL-1 cells (PGF2α RIA); details: RBL-1 intact cell cyclooxygenase; A23187 5 μM
Sequence (Q63921 27-602): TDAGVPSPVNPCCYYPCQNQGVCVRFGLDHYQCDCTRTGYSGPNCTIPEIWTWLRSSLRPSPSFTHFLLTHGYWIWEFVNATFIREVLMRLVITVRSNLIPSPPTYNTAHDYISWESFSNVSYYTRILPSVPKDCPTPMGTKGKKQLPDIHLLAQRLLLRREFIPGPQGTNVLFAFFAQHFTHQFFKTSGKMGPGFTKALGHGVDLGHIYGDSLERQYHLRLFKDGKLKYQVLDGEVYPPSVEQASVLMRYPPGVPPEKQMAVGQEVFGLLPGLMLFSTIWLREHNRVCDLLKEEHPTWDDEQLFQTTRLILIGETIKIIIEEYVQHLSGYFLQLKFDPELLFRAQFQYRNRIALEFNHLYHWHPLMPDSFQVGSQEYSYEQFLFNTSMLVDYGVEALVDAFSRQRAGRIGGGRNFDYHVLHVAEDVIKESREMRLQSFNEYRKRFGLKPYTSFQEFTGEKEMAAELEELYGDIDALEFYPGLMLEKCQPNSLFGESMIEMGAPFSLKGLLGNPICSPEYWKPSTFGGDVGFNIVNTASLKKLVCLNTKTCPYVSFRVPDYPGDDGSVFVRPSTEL
pIC50: −log10 of the molar value.
For each record, write down the corresponding pIC50.

Lookup: Entry COC(=O)Cn1nc(C)cc1C=Cc1ccc(O)c(OC)c1 [Example 10I] has what pIC50?
Found: < 4.60

Lookup: Entry COC(=O)Cn1nc(C)cc1C=Cc1cc(C(C)(C)C)c(O)c(C(C)(C)C)c1 [Example 10G-2] has what pIC50?
Found: < 4.52

Lookup: Entry COc1cc(C=Cc2cc(C)nn2CC(=O)O)cc(OC)c1O [Example 10M] has what pIC50?
Found: < 4.52
